system: Mitogen-activated protein kinase kinase kinase 8 (Homo sapiens, UniProt P41279)
Sequence (P41279 whole entry): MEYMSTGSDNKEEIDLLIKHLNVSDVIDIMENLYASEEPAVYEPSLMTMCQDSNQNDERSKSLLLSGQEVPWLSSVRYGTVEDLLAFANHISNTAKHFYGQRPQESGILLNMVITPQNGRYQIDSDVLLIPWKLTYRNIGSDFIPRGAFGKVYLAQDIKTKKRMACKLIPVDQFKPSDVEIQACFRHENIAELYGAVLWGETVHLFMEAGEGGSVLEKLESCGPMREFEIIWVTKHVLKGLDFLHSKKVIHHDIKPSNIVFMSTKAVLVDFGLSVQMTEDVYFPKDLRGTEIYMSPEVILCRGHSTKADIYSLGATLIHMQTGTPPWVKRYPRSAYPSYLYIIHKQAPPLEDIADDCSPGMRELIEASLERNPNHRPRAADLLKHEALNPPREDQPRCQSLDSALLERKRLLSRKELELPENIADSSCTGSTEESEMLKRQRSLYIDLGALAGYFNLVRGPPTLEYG
test_description: COT HTRF Assay
settings: pH 7.5; 22 °C
attribute_measured: pIC50
Lab note — pIC50 values are minus log10 of concentrations in M.

What does the record list as pIC50 for O=C(O)c1cc2c(Oc3ccc(I)cc3)cncc2s1 ?
6.00
